- study target: FAP (HT-1080-FAP cells) (Homo sapiens)
- Sequence (Q12884 whole entry): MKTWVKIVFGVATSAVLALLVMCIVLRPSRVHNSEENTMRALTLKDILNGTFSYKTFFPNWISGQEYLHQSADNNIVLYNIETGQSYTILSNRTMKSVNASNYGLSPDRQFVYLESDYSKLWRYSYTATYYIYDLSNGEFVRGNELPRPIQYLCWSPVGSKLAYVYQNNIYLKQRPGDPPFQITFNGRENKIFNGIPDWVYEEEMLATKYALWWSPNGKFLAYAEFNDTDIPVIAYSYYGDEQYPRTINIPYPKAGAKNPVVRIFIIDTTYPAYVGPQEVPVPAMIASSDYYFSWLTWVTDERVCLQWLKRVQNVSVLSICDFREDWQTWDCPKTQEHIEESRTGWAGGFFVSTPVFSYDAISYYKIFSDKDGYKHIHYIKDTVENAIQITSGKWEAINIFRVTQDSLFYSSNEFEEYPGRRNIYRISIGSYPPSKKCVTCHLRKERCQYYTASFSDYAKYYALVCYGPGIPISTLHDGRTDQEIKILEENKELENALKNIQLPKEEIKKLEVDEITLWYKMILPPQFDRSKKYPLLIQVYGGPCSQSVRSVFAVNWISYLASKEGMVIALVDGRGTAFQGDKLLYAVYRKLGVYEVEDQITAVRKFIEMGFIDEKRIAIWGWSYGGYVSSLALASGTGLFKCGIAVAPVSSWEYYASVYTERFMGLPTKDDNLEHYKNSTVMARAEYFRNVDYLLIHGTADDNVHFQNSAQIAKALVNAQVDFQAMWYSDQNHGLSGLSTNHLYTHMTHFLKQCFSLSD
- method notes: Competition experiments with unlabeled precursor on HT-1080-FAP cells
- condition context: co-incubation with unlabeled precursor for 60 min
Listing of entries alongside the reported EC50.
Use nM as the unit, but write only the number.

CN(CCCN1CCN(C(=O)CN2CCN(CC(=O)O)CCN(CC(=O)O)CC2)CC1)c1ccc2nccc(C(=O)NCC(=O)N3CC(F)(F)C[C@H]3C#N)c2c1 3.2
N#C[C@@H]1CC(F)(F)CN1C(=O)CNC(=O)c1ccnc2ccc(OCCCN3CCN(C(=O)CN4CCN(CC(=O)O)CCN(CC(=O)O)CC4)CC3)cc12 3.3
N#C[C@@H]1CC(F)(F)CN1C(=O)CNC(=O)c1ccnc2ccc(OCCCN3CCN(C(=O)[C@H](CC(C(=O)O)C(=O)O)NC(=O)CN4CCN(CC(=O)O)CCN(CC(=O)O)CC4)CC3)cc12 3.1

Here is another compound to look at.
Ask | Which value of EC50 has been reported for N#C[C@@H]1CCCN1C(=O)CNC(=O)c1ccnc2ccc(OCCCN3CCN(C(=O)CN4CCN(CC(=O)O)CCN(CC(=O)O)CC4)CC3)cc12 in the records?
Reply | 4.2
